Hey, just so you know, these numbers are from patent US20260159520A1.

System: T47D cells
Assay: Cellular growth inhibition assay for T47D cells
Format: cell-based
Conditions: Homo sapiens, 72 hours, CellTiter-Glo 2.0
Description: T47D cells were purchased from American Type Cell Culture (ATCC Cat #HTB-133) and then seeded on poly-D-lysine coated, black clear-bottom 384-well plates at 3000/well in 25 μL Dulbecco's Modified Eagle Medium (DMEM) supplemented with 10% w/w Fetal bovine serum (FBS), 0.2 units/mL recombinant human insulin (Gibco Cat #12585014), and 1% w/w Pen-Strep. […] At the end of the treatment duration, cell viability was quantified with CellTiter-Glo 2.0 reagent (Promega Cat #G9243). […]
Kindly supply the reported GI50 values for the records listed here.

compound	GI50
CCc1cnn2c(NCc3ccc(N4CC(N5CCC(N6CCN(c7ncc(C(=O)N[C@H]8C(C)(C)[C@H](Oc9ccc(C#N)c(Cl)c9)C8(C)C)cn7)CC6)CC5)C4)nc3)cc(N3CCCC[C@H]3CCO)nc12 [Compound I-64]	< 0.5 µM
Cc1ncc(-c2nc(Nc3ccc(C(=O)N4CC[C@H](N(C)CCOCCOCCOCCOCCOC5CCN(c6ncc(C(=O)N[C@H]7C(C)(C)[C@H](Oc8ccc(C#N)c(Cl)c8)C7(C)C)cn6)CC5)C4)cc3)ncc2F)n1C(C)C [Compound I-97]	1.5 to 3 µM
CCc1cnn2c(NCc3ccc(OCCCN4CCN(C5CN(c6ncc(C(=O)N[C@H]7C(C)(C)[C@H](Oc8ccc(C#N)c(Cl)c8)C7(C)C)cn6)C5)CC4)nc3)cc(N3CCCC[C@H]3CCO)nc12 [Compound I-60]	< 0.5 µM

Shifting focus to the compound that follows.
Please fill in: GI50 reported for CC(C)n1cc(-c2ccnc3[nH]c(C4CCN(CCOCCOC5CCN(c6ncc(C(=O)N[C@H]7C(C)(C)[C@H](Oc8ccc(C#N)c(Cl)c8)C7(C)C)cn6)CC5)CC4)cc23)ccc1=O [Compound I-76] = < 0.5 µM
